Values were extracted from paper PMC6320941.

# Target under test: UniProtKB Q16539
# Sequence (Q16539 whole entry): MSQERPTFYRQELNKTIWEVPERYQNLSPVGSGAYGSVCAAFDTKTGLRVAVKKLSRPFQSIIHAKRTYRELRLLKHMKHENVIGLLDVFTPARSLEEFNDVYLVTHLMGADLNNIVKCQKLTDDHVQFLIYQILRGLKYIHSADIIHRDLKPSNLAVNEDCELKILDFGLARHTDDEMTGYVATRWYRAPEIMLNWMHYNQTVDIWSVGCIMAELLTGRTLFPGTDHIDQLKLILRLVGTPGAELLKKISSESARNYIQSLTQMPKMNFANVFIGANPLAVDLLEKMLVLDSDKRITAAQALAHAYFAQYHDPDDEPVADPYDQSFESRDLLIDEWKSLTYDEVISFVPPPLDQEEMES
# Assay info: Radiometric 33PanQinase p38α MAP kinase assay (ProQinase), ATF2 substrate
# Format: biochemical
# Experimental context: compound at 10 μM, in duplicate; read-out: Residual Activity (%) p38α
# Excerpt: We selected p38α MAP kinase to survey the selectivity profile of this series of compounds because its kinase domain is among the most homologous to that of ALK5 [27]. All kinase experiments were completed by the ProQinase (Freiburg, Germany). All protein kinases were expressed in Sf9 insect cells or in E. coli as recombinant GST-fusion proteins or His-tagged proteins, either as full-length or enzymatically active fragments. […]
Endpoint: remaining activity at 10 µM (%)

Cc1csc(-c2c(-c3ccc4nccnc4c3)cnn2CC(=O)Nc2cccc(F)c2)n1 [Compound 17c]
66

[a] Cc1csc(-c2nn(CC(=O)Nc3cccc(F)c3)cc2-c2ccc3nccnc3c2)n1 [Compound 16c]
[b] Cc1csc(-c2c(-c3ccc4nccnc4c3)cnn2CC(=O)Nc2ccccc2)n1 [Compound 17a]
[c] CN(C)c1cccc(-c2nn(CC(=S)Nc3cccc(F)c3)cc2-c2ccc3nccnc3c2)n1 [Compound 18c]
Task: Ordering criterion: remaining activity at 10 µM; begin with the maximum. In your reply, arrange the labels in the requested order.
Output: c, a, b
(c: 165%, a: 101%, b: 68%)
